Activity values for the molecules below.
Tested on: SK-HEP1
Test: Induction of cell cycle arrest in human SK-Hep1 cells assessed as accumulation at G1 phase at 80 nM treated for 24 hrs by PI staining based flow cytometry (reference value: 58.47 %)
Format: functional
Numbers only here, please. The scale is %.

Some molecules with known Activity results, for comparison:
[[record]]
molecule = "O=C1c2cc(F)cc(F)c2N(c2cccc(F)c2)C2c3[nH]c4ccc(O)cc4c3CCN12 (centres undefined)"
observed = 11.58

[[record]]
molecule = "CC(=O)Oc1ccc2[nH]c3c(c2c1)CCN1C(=O)c2cc(F)cc(F)c2N(c2cccc(F)c2)C31 (centres undefined)"
observed = 19.76

[[record]]
molecule = "CNC(=O)c1cc(Oc2ccc(NC(=O)Nc3ccc(Cl)c(C(F)(F)F)c3)cc2)ccn1 [SORAFENIB]"
observed = 60.47


Query molecule follows.
Find the measured Activity: item CN1c2ccccc2C(=O)N2CCc3c([nH]c4ccccc34)C21 (centres undefined) , target or system SK-HEP1. 60.43

---

Molecular target: DNA topoisomerase 1 (Homo sapiens) (UniProt P11387)
Sequence (whole entry): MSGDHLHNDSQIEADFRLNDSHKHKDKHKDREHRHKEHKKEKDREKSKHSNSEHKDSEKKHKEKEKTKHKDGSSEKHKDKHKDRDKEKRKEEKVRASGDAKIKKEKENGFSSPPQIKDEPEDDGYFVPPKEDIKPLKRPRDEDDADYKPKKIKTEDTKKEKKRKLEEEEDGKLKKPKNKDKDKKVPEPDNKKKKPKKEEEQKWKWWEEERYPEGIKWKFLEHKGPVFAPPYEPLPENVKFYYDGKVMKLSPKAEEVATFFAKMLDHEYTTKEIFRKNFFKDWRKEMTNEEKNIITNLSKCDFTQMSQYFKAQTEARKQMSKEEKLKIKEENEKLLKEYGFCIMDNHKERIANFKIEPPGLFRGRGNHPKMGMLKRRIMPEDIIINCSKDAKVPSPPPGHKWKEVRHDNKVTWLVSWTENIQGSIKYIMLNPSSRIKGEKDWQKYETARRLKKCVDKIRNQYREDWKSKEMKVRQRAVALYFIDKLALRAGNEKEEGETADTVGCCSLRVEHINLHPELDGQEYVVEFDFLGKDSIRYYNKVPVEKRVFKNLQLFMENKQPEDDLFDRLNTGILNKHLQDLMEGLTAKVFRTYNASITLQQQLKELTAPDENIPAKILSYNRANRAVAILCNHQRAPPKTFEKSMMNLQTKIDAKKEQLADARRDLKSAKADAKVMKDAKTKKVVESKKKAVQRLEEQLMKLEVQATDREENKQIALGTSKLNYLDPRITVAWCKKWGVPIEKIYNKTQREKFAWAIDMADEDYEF
Assay: Inhibition of Top1 (unknown origin) assessed as inhibition of relaxation of supercoiled pBR322 plasmid DNA at 50 uM incubated for 25 mins by ethidium bromide staining based agarose gel electrophoresis analysis relative to control
inhibition values for the compounds below.
Numbers only here, please. The scale is %.

[[record]]
compound = "CN1c2ccccc2C(=O)N2CCc3c([nH]c4ccccc34)C21 (stereo not drawn)"
property_name = "inhibition"
observed = 63.4

[[record]]
compound = "CCOc1ccc2[nH]c3c(c2c1)CCN1C(=O)c2cc(F)cc(F)c2N(c2cccc(F)c2)C31 (stereo not drawn)"
property_name = "inhibition"
observed = 66.7


Query compound follows.
What value of measured inhibition is listed for Cc1ccc2[nH]c3c(c2c1)CCN1C(=O)c2cc(F)cc(F)c2N(c2cccc(F)c2)C31 (stereo not drawn) ? 83.7

---

System: SK-HEP1
Experiment: Induction of apoptosis in human SK-Hep1 cells assessed as early apoptotic cells at 80 nM incubated for 24 hrs by annexin V-FITC/PI staining flow cytometry (reference value: 0.30 %)
Type: functional
Property name: Activity (%)
Numbers only here, please. The scale is %.

Some molecules with known Activity results, for comparison:
[[record]]
molecule = "CN1c2ccccc2C(=O)N2CCc3c([nH]c4ccccc34)C21 (centres undefined)"
assay_system = "SK-HEP1"
property_name = "Activity"
unit_abbreviation = "%"
observed = 0.27

[[record]]
molecule = "CC(=O)Oc1ccc2[nH]c3c(c2c1)CCN1C(=O)c2cc(F)cc(F)c2N(c2cccc(F)c2)C31 (centres undefined)"
assay_system = "SK-HEP1"
property_name = "Activity"
unit_abbreviation = "%"
observed = 13.5

[[record]]
molecule = "CNC(=O)c1cc(Oc2ccc(NC(=O)Nc3ccc(Cl)c(C(F)(F)F)c3)cc2)ccn1 [SORAFENIB]"
assay_system = "SK-HEP1"
property_name = "Activity"
unit_abbreviation = "%"
observed = 1.01


Query molecule follows.
Find the measured Activity: item O=C1c2cc(F)cc(F)c2N(c2cccc(F)c2)C2c3[nH]c4ccc(O)cc4c3CCN12 (centres undefined) , target or system SK-HEP1. 0.75

---

Activity values for the compounds below.
System: SK-HEP1
Assay: Induction of apoptosis in human SK-Hep1 cells assessed as necrotic cells at 80 nM incubated for 24 hrs by annexin V-FITC/PI staining flow cytometry (reference value: 0.73 %)
Format: functional

Some compounds with known Activity results, for comparison:
[[record]]
compound = "CC(=O)Oc1ccc2[nH]c3c(c2c1)CCN1C(=O)c2cc(F)cc(F)c2N(c2cccc(F)c2)C31 (centres undefined)"
assay_system = "SK-HEP1"
property_name = "Activity"
observed = "2.63%"

[[record]]
compound = "CNC(=O)c1cc(Oc2ccc(NC(=O)Nc3ccc(Cl)c(C(F)(F)F)c3)cc2)ccn1"
assay_system = "SK-HEP1"
property_name = "Activity"
observed = "1.32%"

[[record]]
compound = "O=C1c2cc(F)cc(F)c2N(c2cccc(F)c2)C2c3[nH]c4ccc(O)cc4c3CCN12 (centres undefined)"
assay_system = "SK-HEP1"
property_name = "Activity"
observed = "2.39%"


Find the measured Activity: item CN1c2ccccc2C(=O)N2CCc3c([nH]c4ccccc34)C21 (centres undefined) , target or system SK-HEP1. 1.01%

---

Tested on: SK-HEP1
Test: Antiproliferative activity against human SK-HEP1 cells treated for 72 hrs by MTT assay
Format: functional, cell-based
Settings: SK-HEP1, 72 h
pIC50: −log10 of the molar value.
Could you please classify the records by pIC50 using these ranges: band 1 = under 5, band 2 = from 5 up to 6, band 3 = 6 and over

[[record]]
molecule = "Cc1ccc2[nH]c3c(c2c1)CCN1C(=O)c2cc(F)cc(F)c2N(c2cccc(F)c2)C31 (centres undefined)"
assay_system = "SK-HEP1"
cat = "band 3"


Bin this entry: O=C1c2cc(F)cc(F)c2N(c2cccc(F)c2)C2c3[nH]c4ccc(O)cc4c3CCN12 (centres undefined) band 3

How about COc1ccc2[nH]c3c(c2c1)CCN1C(=O)c2cc(F)ccc2N(c2cc(F)ccc2Br)C31 (centres undefined) ? band 1

---

Test: Antiproliferative activity against human L02 cells treated for 72 hrs by MTT assay
Assay type: toxicity, cell-based
Property name: IC50 at 72 h (µM)
Numbers only here, please. The scale is µM.

What value of measured IC50 at 72 h is listed for COc1ccc2[nH]c3c(c2c1)CCN1C(=O)c2cc(F)cc(F)c2N(c2cccc(F)c2)C31 (stereo not given) ? 1.56

How about O=C1c2cc(F)cc(F)c2N(c2cccc(F)c2)C2c3[nH]c4ccc(Cl)cc4c3CCN12 (stereo not given) ? 1.37

How about Cc1ccc2[nH]c3c(c2c1)CCN1C(=O)c2cc(F)cc(F)c2N(c2cccc(F)c2)C31 (stereo not given) ? 1.4

How about O=C1c2cc(F)cc(F)c2N(c2cccc(F)c2)C2c3[nH]c4ccc(O)cc4c3CCN12 (stereo not given) ? 0.78

How about COc1ccc2[nH]c3c(c2c1)CCN1C(=O)c2cc(F)ccc2N(c2cc(F)cc(Cl)c2)C31 (stereo not given) ? 5.44

How about O=C1c2cc(F)cc(F)c2N(c2cccc(F)c2)C2c3[nH]c4ccccc4c3CCN12 (stereo not given) ? 0.95

---

Test: Induction of apoptosis in rat HSC-T6 cells assessed as late apoptotic cells at 80 nM pretreated with TGFbeta-1 for 1 day followed by compound addition and measured after 24 hrs by flow cytometry (reference value: 1.76 %)
Format: functional
Property name: Activity
Please append the unit to your numeric answer.

Some molecules with known Activity results, for comparison:
[[record]]
molecule = "CNC(=O)c1cc(Oc2ccc(NC(=O)Nc3ccc(Cl)c(C(F)(F)F)c3)cc2)ccn1"
property_name = "Activity"
observed = "7.47%"

[[record]]
molecule = "CN1c2ccccc2C(=O)N2CCc3c([nH]c4ccccc34)C21 (centres undefined)"
property_name = "Activity"
observed = "4.44%"

[[record]]
molecule = "CC(=O)Oc1ccc2[nH]c3c(c2c1)CCN1C(=O)c2cc(F)cc(F)c2N(c2cccc(F)c2)C31 (centres undefined)"
property_name = "Activity"
observed = "53%"


What value of measured Activity is listed for O=C1c2cc(F)cc(F)c2N(c2cccc(F)c2)C2c3[nH]c4ccc(O)cc4c3CCN12 (centres undefined) ? 41.8%
